B1: FBF1 (parent)
chain: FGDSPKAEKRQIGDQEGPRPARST

variants of: B1; assay: protein stability index of a GFP-peptide fusion (GPS, HEK-293T) (PSI 1-6); higher = more stable; conditions: c terminus: a fixed tail appended;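 further: lentivirally expressed fusions sorted by FACS into six bins by GFP to DsRed ratio, PSI derived from sequencing read proportions per bin multiplied by bin number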

mutation.key: R10I
protein stability index: 5.19

mutation.key: T24V
protein stability index: 4.67

mutation.key: E16D
protein stability index: 5.75

mutation.key: G17Q
protein stability index: 5.15

mutation.key: Q15C
protein stability index: 4.23

mutation.key: P5H
protein stability index: 5

mutation.key: S4K
protein stability index: 4.79

mutation.key: D14I
protein stability index: 4.38

mutation.key: F1A
protein stability index: 5.87

mutation.key: R19D
protein stability index: 5.3

mutation.key: E8Q
protein stability index: 4.48

mutation.key: Q15S
protein stability index: 5.72

mutation.key: G17P
protein stability index: 5.54

mutation.key: G13H
protein stability index: 4.69

mutation.key: P18R
protein stability index: 4.78

mutation.key: A7K
protein stability index: 5.31

mutation.key: F1N
protein stability index: 5.54

mutation.key: I12A
protein stability index: 4.73

mutation.key: S23V
protein stability index: 5

mutation.key: D14R
protein stability index: 4.82

mutation.key: D3T
protein stability index: 4.99

mutation.key: P20Q
protein stability index: 5.39

mutation.key: Q11A
protein stability index: 5.6

mutation.key: G2H
protein stability index: 4.58

mutation.key: Q11Y
protein stability index: 4.45

mutation.key: S4D
protein stability index: 5.43

mutation.key: T24W
protein stability index: 4.34

mutation.key: P5I
protein stability index: 4.89

mutation.key: A7T
protein stability index: 4.44

mutation.key: A21T
protein stability index: 5.9

mutation.key: A21F
protein stability index: 4.52

mutation.key: Q11L
protein stability index: 4.7

mutation.key: Q15H
protein stability index: 3.53

mutation.key: K6T
protein stability index: 5.56

mutation.key: F1G
protein stability index: 5.72

mutation.key: P20D
protein stability index: 5.07

mutation.key: F1W
protein stability index: 5.69

mutation.key: Q11P
protein stability index: 5.25

mutation.key: P20K
protein stability index: 4.72

mutation.key: P5L
protein stability index: 4.58

mutation.key: D3I
protein stability index: 5.04

mutation.key: F1I
protein stability index: 5.41

mutation.key: D14C
protein stability index: 4.7
